Target: FGFR1 (UniProt P11362)
Sequence (P11362 whole entry, looked up): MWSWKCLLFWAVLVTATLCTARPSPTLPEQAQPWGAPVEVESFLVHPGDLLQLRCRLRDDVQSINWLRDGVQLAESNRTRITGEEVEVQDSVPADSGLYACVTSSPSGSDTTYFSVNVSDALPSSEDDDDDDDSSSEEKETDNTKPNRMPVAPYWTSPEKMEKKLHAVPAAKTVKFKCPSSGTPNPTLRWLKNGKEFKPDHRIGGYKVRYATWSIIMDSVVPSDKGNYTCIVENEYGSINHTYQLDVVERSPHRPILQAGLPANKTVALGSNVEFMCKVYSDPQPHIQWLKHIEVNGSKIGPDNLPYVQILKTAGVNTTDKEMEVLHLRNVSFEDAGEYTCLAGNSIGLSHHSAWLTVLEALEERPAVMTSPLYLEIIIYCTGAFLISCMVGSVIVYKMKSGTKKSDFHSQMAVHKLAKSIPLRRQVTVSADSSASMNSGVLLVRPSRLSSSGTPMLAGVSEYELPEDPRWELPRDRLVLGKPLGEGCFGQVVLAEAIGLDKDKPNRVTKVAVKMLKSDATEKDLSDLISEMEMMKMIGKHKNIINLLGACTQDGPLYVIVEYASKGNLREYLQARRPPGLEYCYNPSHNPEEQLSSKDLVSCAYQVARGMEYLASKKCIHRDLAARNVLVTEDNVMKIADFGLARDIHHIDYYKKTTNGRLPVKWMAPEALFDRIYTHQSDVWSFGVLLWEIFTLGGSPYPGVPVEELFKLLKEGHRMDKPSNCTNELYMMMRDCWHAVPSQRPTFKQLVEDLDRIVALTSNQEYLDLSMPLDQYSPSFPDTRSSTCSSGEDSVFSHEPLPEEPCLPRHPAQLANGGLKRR
Assay: phosphorylation enrichment, bacterial display (enrichment ratio); higher = better substrate or ligand; peptides without Tyr show the background;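 note: 11-residue human phosphosite peptides and single-mutation variants displayed on the E. coli surface, counted by deep sequencing, each peptide's frequency after selection divided by its frequency in the unselected input library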;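 note: frequency after pTyr selection over input frequency; kinase dosed for 20-30% of maximal phosphorylation in three min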
READOUT TYPE: phosphorylation enrichment
Please reply with the value in numeric form only.

Q) Param item = RVDRDYVLKSA [HTATIP2_Y111] ; retrieve measured phosphorylation enrichment.
A) 0.627

Q) # get_value(readout='phosphorylation enrichment', item= DFFDLYGGEKK [PTPN11_Y66_F71K_YF] )
A) 0.562

Q) // phosphorylation enrichment lookup, key: FYNSEYGELSE [FLT4_Y1337]
A) 0.628

Q) What value of phosphorylation enrichment has been recorded for this entry: TPTFPYLLPKS [PLD2_Y580_YF]
A) 0.503

Q) Value lookup for phosphorylation enrichment; key = MKALGYFAVGT [OPA1_Y498_V502G]
A) 0.479

Q) Query: phosphorylation enrichment; subject: FSPPYYHRNCM [HGD_Y334_R330S]
A) 0.66

Q) Which phosphorylation enrichment value belongs to FTFNSYFMHWV [IGHV1-46_Y51_T49N_YF] ?
A) 1.51

Q) Which phosphorylation enrichment reading was recorded for the sequence MKVPLYETPAG [PGM5_Y358_V357L] ?
A) 0.52

Q) Value lookup for phosphorylation enrichment; key = GEFFRYLAEVA [YWHAG_Y133_D129E_YF]
A) 0.498

Q) Which phosphorylation enrichment is listed for SLDHPFEKPRK [INAVA_Y333_Y333F] ?
A) 0.388

Q) Query: phosphorylation enrichment; subject: FGSVDCWEKFF [EEF1AKNMT_Y16_Y16C]
A) 0.511

Q) What value of phosphorylation enrichment has been reported for the following sequence? FFFDLYGGEKF [PTPN11_Y66_D61Y_YF]
A) 0.415

Q) Entry under review: SELVRYDARVH [MET_Y971] . Reported phosphorylation enrichment?
A) 0.479
